# Tested on: MT2
# Protocol details: Cytotoxicity against human MT2 cells assessed as reduction in cell growth
# Assay type: functional, cell-based
Parameter measured: IC50

# input # query: IC50 of entry "Nc1cc(Cl)nc(SCc2ccccc2)n1"
# output > 16 µM

----------
# Protocol details: Cytotoxicity against human PBMC cells
# Type: toxicity, cell-based
pIC50: −log10 of the molar value.
Parameter measured: pIC50

# input # query: pIC50 of entry "Nc1cc(Cl)nc(SCc2ccccc2)n1"
# output < 4.80

----------
# Target or test system: Human immunodeficiency virus type 1 reverse transcriptase (Human immunodeficiency virus 1, UniProt Q72547)
# Protocol details: Inhibition of wild type HIV-1 Reverse transcriptase
Collected pIC50 values appear next to each entry.
In textbook form, pIC50 equals minus log to base ten of the concentration in mol/L.

# input # query: pIC50 of entry Cc1c(C(C)c2c(F)cccc2F)nc(NC2CCCCC2)[nH]c1=O (stereo not drawn)
# output 7.46

More entries:
# input # query: pIC50 of entry "COc1ccc(Cn2cc(CSc3nc(Cc4c(Cl)cccc4Cl)c(C)c(=O)[nH]3)nn2)cc1"
# output 5.34

# input # query: pIC50 of entry CCCNc1nc(C(C)c2c(F)cccc2F)c(C)c(=O)[nH]1 (stereo not drawn)
# output 7.52

The values you see were collected from ChEMBL document CHEMBL6115028.
